Experiment: RP, Waters ACQUITY UPLC BEH C18, 100 × 1 mm, 1.7 µm, 50 °C, 0.3 mL/min, estimated dead time 0.17 min; A: water + 0.1% formic acid + 20 mM ammonium formate; B: methanol + 0.1% formic acid + 20 mM ammonium formate; gradient (min/%B) 0/0 15/100 21/100 22/0 30/0
Conditions: stereoisomer not certain
// classify: if (LC retention time < 10 min) true (1) else false (0)

Some solved entries appear below for comparison.
{"Molecule": "COc1cc(OC)nc(N)n1 [2-Amino-4,6-dimethoxypyrimidine]", "Class": "true (1)"}
{"Molecule": "O=C(O)Cc1ccccc1Nc1c(Cl)cc(O)cc1Cl [4-Hydroxy-Diclofenac]", "Class": "false (0)"}
{"Molecule": "CCC(C)n1c(=O)[nH]c(C)c(Br)c1=O (centres undefined) [Bromacil]", "Class": "false (0)"}
{"Molecule": "Cc1cccc2sc3nncn3c12 [Tricyclazole]", "Class": "false (0)"}
{"Molecule": "CC(C)N1C(=O)c2ccccc2NS1(=O)=O [Bentazone]", "Class": "false (0)"}
{"Molecule": "CCc1cccc(C)c1NC(=O)CCl [Metolachlor-N-dealkylation]", "Class": "false (0)"}

Exercise: Hi there! Is LC retention time for CCOc1ccc(C(C)(C)COCc2cccc(Oc3ccccc3)c2)cc1 [Etofenprox] below 10 min, do you know?
Key: false (0)

Exercise: Here is the next molecule: Oc1ccc(C(=C(Cl)Cl)c2ccc(O)cc2)cc1 [Bisphenol C-dichloride]
Key: false (0)

Exercise: Here is the next molecule: CNC(=O)ON=CC(C)(C)S(C)=O (centres undefined) [Aldicarb Sulfoxide]
Key: true (1)

Exercise: Here is the next molecule: CCC(C)c1cc([N+](=O)[O-])cc([N+](=O)[O-])c1O (centres undefined) [Dinoseb]
Key: false (0)
